# Experimental System: S100P-RAGE interaction (Homo sapiens, UniProt P25815)
# Construct: His tag (N); made in house; host or cells: Escherichia coli BL21*
# Sequence (P25815 1-95): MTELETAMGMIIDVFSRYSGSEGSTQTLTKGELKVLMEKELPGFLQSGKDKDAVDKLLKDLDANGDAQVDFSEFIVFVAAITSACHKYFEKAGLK
# Assay Remarks: ELISA of S100P-RAGE binding inhibition
# Run Parameters: Table 1; ELISA, human S100P 2 μM coated wells, human RAGE-Fc; read-out: Estimated IC50
Recorded pIC50 values for a group of compounds are listed next.
Friendly reminder that pIC50 comes from taking -log10 of the concentration in mol/L.

O=C(O)CNC(=O)CCCn1c(=O)[nH]c2ccccc2c1=O [Compound 10] :: 7.37
Cc1nc2sc3c(c2c2nc(C(=O)NCCOCCO)nn12)C[C@@H](C)CC3 [Compound 13] :: 6.90
CCCN1CCc2c(sc3c2c(NCCc2ccccc2)nc2nnnn23)C1 [Compound 14] :: 7.11
O=C(O)CCNC(=O)Cn1nnc2ccccc2c1=O [Compound 11] :: 8.16

S100P-RAGE interaction (Homo sapiens, UniProt P25815) / pIC50 / N#CCCn1cc(C(=O)Nc2ccc(C(=O)O)cc2)c(-c2ccccc2)n1 [Compound 5] : value?
9.22

---

# Experimental System: S100P-RAGE interaction (Homo sapiens, UniProt P25815)
# Construct: His tag (N); made in house; host or cells: Escherichia coli BL21*
# Assay Remarks: ELISA of S100P-RAGE binding inhibition
# Run Parameters: Table 2; ELISA, analog series of hit 4; read-out: Estimated IC50
Recorded IC50 values for a group of compounds are listed next.
Give the value, in units of nM, as a plain number.

Worked cases, answers included:
O=C1C2C3c4ccccc4C(c4ccccc43)C2C(=O)N1c1ccccc1 (stereo not shown) :: 0.796
O=C1C2C3c4ccccc4C(c4ccccc43)C2C(=O)N1c1cccc(F)c1 (stereo not shown) :: 1.3
O=C(O)c1ccc(N2C(=O)C3C4c5ccccc5C([N+](=O)[O-])(c5ccccc54)C3C2=O)cc1 (stereo not shown) :: 0.482

Switching to the query record.
Reported IC50 for O=C1C2C3c4ccccc4C(c4ccccc43)C2C(=O)N1c1ccc(F)cc1 (stereo not shown) : what is it?
4.15

---

Experimental Endpoint: melting point

O=C1C2C3c4ccccc4C(c4ccccc43)C2C(=O)N1c1cccc(F)c1 (stereo not drawn) :: 228 to 230 °C
O=C(O)c1ccc(N2C(=O)C3C4c5ccccc5C([N+](=O)[O-])(c5ccccc54)C3C2=O)cc1 (stereo not drawn) :: 344 to 345 °C
O=C1C2C3c4ccccc4C([N+](=O)[O-])(c4ccccc43)C2C(=O)N1c1cccc(F)c1 (stereo not drawn) :: 241 to 243 °C
O=C(O)c1cccc(N2C(=O)C3C4c5ccccc5C([N+](=O)[O-])(c5ccccc54)C3C2=O)c1 (stereo not drawn) :: 271 to 272 °C
O=C1C2C3c4ccccc4C(c4ccccc43)C2C(=O)N1c1ccccc1 (stereo not drawn) :: 211 to 215 °C

Switching to the query record.
Reported melting point for O=C1C2C3c4ccccc4C(c4ccccc43)C2C(=O)N1c1ccc(F)cc1 (stereo not drawn) : what is it?
250 to 253 °C

---

# Experimental System: S100P-RAGE interaction (Homo sapiens, UniProt P25815)
# Construct: His tag (N); made in house; host or cells: Escherichia coli BL21*
# Assay Remarks: ELISA of S100P-RAGE binding inhibition
# Run Parameters: ELISA
Recorded concentration with significant inhibition of S100P-RAGE binding values for a group of molecules are listed next.

O=C(O)c1ccc(N2C(=O)C3C4c5ccccc5C([N+](=O)[O-])(c5ccccc54)C3C2=O)cc1 (stereo not drawn) :: ≤ 100 nM
O=C(O)c1cccc(N2C(=O)C3C4c5ccccc5C([N+](=O)[O-])(c5ccccc54)C3C2=O)c1 (stereo not drawn) :: ≥ 10 nM

Switching to the query record.
S100P-RAGE interaction (Homo sapiens, UniProt P25815) / concentration with significant inhibition of S100P-RAGE binding / O=C1C2C3c4ccccc4C(c4ccccc43)C2C(=O)N1c1cccc(F)c1 (stereo not drawn) : value?
≤ 100 nM

---

# Experimental System: S100P-RAGE interaction (Homo sapiens, UniProt P25815)
# Construct: His tag (N); made in house; host or cells: Escherichia coli BL21*
# Sequence (P25815 1-95): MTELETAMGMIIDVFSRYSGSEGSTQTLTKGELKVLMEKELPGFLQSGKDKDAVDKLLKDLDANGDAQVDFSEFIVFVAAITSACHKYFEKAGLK
# Assay Remarks: ELISA of S100P-RAGE binding inhibition
# Run Parameters: Table 1; ELISA, human S100P 2 μM coated wells, human RAGE-Fc; read-out: Estimated IC50
Recorded log10 of IC50 values for a group of molecules are listed next.
Units before log transform: nM; reported quantity: IC50; transform: log10.

Reported log10 of IC50 for Cc1ccc(-c2ccc(=O)n(CC(=O)Nc3ccc(-n4cnnn4)cc3)n2)cc1 [Compound 6] : what is it?
-0.26

Reported log10 of IC50 for COc1ccc(-c2noc(CCCC(=O)O)n2)cc1 [Compound 12] : what is it?
2.42

Reported log10 of IC50 for Nc1nnn(CC(=O)N/N=C/c2cccs2)n1 [Compound 9] : what is it?
0.89

Reported log10 of IC50 for O=C(O)c1cccc(N2C(=O)C3C4c5ccccc5C([N+](=O)[O-])(c5ccccc54)C3C2=O)c1 (centres unmarked) [Compound 4] : what is it?
1.36

Reported log10 of IC50 for O=C(Cc1cc(O)n[nH]1)N/N=C/c1c(Cl)cccc1Cl [Compound 7] : what is it?
1.28

---

# Experimental System: S100P-RAGE interaction (Homo sapiens, UniProt P25815)
# Construct: His tag (N); made in house; host or cells: Escherichia coli BL21*
# Assay Remarks: ELISA of S100P-RAGE binding inhibition
Experimental Endpoint: IC50 (nM)
Give the value, in units of nM, as a plain number.

Reported IC50 for COc1ccc(/C=C2/C(=O)NC(=O)N(c3ccc(Cl)c(Cl)c3)C2=O)cc1C(=O)O [Compound 3] : what is it?
0.514

---

Recorded ELISA inhibition values for a group of molecules are listed next.
# Experimental System: S100P-RAGE interaction (Homo sapiens)
# Construct: His tag (N); made in house; host or cells: Escherichia coli BL21*
# Sequence (P25815 1-95): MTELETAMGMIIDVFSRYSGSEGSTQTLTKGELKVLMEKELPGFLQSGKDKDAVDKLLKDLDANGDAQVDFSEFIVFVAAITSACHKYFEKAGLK
# Assay Remarks: ELISA of S100P-RAGE binding inhibition
# Run Parameters: Table 2; concentration with significant inhibition of S100P-RAGE binding; asterisks = significance by one-way ANOVA

O=C(O)c1cccc(N2C(=O)C3C4c5ccccc5C([N+](=O)[O-])(c5ccccc54)C3C2=O)c1 (stereo not drawn) :: 10 nM∗∗
O=C1C2C3c4ccccc4C([N+](=O)[O-])(c4ccccc43)C2C(=O)N1c1cccc(F)c1 (stereo not drawn) :: 100 nM∗
O=C1C2C3c4ccccc4C(c4ccccc43)C2C(=O)N1c1ccccc1 (stereo not drawn) :: 10 nM∗
O=C(O)c1ccc(N2C(=O)C3C4c5ccccc5C([N+](=O)[O-])(c5ccccc54)C3C2=O)cc1 (stereo not drawn) :: <10 nM∗∗∗

Reported ELISA inhibition for O=C1C2C3c4ccccc4C(c4ccccc43)C2C(=O)N1c1cccc(F)c1 (stereo not drawn) : what is it?
10 nM∗

Reported ELISA inhibition for O=C1C2C3c4ccccc4C(c4ccccc43)C2C(=O)N1c1ccc(F)cc1 (stereo not drawn) : what is it?
10 nM∗

---

# Experimental System: S100P-RAGE interaction (Homo sapiens, UniProt P25815)
# Construct: His tag (N); made in house; host or cells: Escherichia coli BL21*
# Assay Remarks: ELISA of S100P-RAGE binding inhibition
# Run Parameters: ELISA
# Protocol: The purchased computational screening hits were subjected to initial biological testing for inhibition of S100P-RAGE binding (ELISA), with cromolyn as positive control, using an adaptation of the reported ELISA for S100 family members. […] Following washing, S100P non-specific binding sites were blocked with 1% bovine serum albumin (BSA; Fisher, UK) in PBS for 2 h at 37 °C. […] Plates were read at 450 nm using a Multiskan Ascent spectrophotometer (Fisher Scientific, UK). […]
Experimental Endpoint: concentration with significant inhibition of S100P-RAGE binding

Worked cases, answers included:
O=C1C2C3c4ccccc4C([N+](=O)[O-])(c4ccccc43)C2C(=O)N1c1cccc(F)c1 (stereo not shown) :: ≤ 100 nM
O=C1C2C3c4ccccc4C(c4ccccc43)C2C(=O)N1c1ccccc1 (stereo not shown) :: ≤ 100 nM
O=C1C2C3c4ccccc4C(c4ccccc43)C2C(=O)N1c1ccc(F)cc1 (stereo not shown) :: ≤ 100 nM

Switching to the query record.
Reported concentration with significant inhibition of S100P-RAGE binding for `O=C(O)c1cc(=O)c2c(OCC(O)COc3cccc4oc(C(=O)O)cc(=O)c34)cccc2o1` : what is it?
≥ 100 nM

The values you see were collected from paper PMC7501730.
